assay: in vivo; details: CD1, mouse, plasma, oral, 30 mg/kg; read-out: Free concentration (nM) at timepoint after 30 mg/kg po
Quick reference for concentration at 2 h among some compounds

Recorded concentration at 2 h, per entry:
Cc1nc(Nc2ncc(C(=O)Nc3c(C)csc3Cl)s2)cc(N2CCN(C)CC2)n1 [Compound D9] : 44 nM
Cc1nc(Nc2ncc(C(=O)Nc3c(Cl)csc3C)s2)cc(N2CCN(CCO)CC2)n1 [Compound D1] : 80 nM

Lab note: next compound to report on.
Q. # input compound: Cc1nc(Nc2ncc(C(=O)Nc3c(Cl)csc3Cl)s2)cc(N2CCN(CCO)CC2)n1 [Compound D7] ; wanted: its concentration at 2 h
A. 43 nM

====

Reported Cmax is given for each of the following compounds.
assay: in vivo; settings: male, CD1, mouse, plasma, po, 30 mg/kg
Answer with a number only, understood to be in nM.

Cc1nc(Nc2ncc(C(=O)Nc3c(C)cccc3Cl)s2)cc(N2CCN(CCO)CC2)n1 [Compound A8, reference compound] : 1130

API: the following record is the query input.
Q. Fill in the blank: the reported Cmax of Cc1nc(Nc2ncc(C(=O)Nc3c(Cl)ccnc3C)s2)cc(N2CCN(CCO)CC2)n1 is ____.
A. 202

====

target: SIK3 (Homo sapiens (Human)); experiment: biochemical
pIC50: −log10 of the molar value.
Value Type: pIC50

Cc1nc(Nc2ncc(C(=O)Nc3c(Cl)csc3Cl)s2)cc(N2CCN(CCO)CC2)n1 : 7.70 to 7.82

We next turn to a different compound, shown below.
Q. Fill in: pIC50 of Cc1nc(Nc2ncc(C(=O)Nc3c(Cl)csc3C)s2)cc(N2CCN(CCO)CC2)n1 [Compound D1] is ___
A. 7.35 to 7.40

====

Measured % Remaining at 40 min (%), listed per entry for reference.
conditions: mouse, microsomes, 40 min
Number in %, nothing else.

Consider the reported % Remaining at 40 min (%) for these compounds:
Cc1nc(Nc2ncc(C(=O)Nc3c(C)cncc3Cl)s2)cc(N2CCN(CCO)CC2)n1 : 45
Cc1nc(Nc2ncc(C(=O)Nc3c(C)nn(C)c3C)s2)cc(N2CCN(CCO)CC2)n1 : 86
Cc1nc(Nc2ncc(C(=O)Nc3c(C)noc3C)s2)cc(N2CCN(CCO)CC2)n1 : 83

Q. Dear colleague, I am looking for the recorded % Remaining at 40 min (%) of the following compound: Cc1nc(Nc2ncc(C(=O)Nc3ncccc3C)s2)cc(N2CCN(CCO)CC2)n1
A. 48

====

conditions: human, microsomes, 40 min
Kindly apply the following: YES if % Remaining at 40 min (%) is less than 60%, NO in every other case.

Cc1nc(Nc2ncc(C(=O)Nc3c(C)noc3C)s2)cc(N2CCN(CCO)CC2)n1 : NO
Cc1nc(Nc2ncc(C(=O)Nc3c(C)nn(C)c3C)s2)cc(N2CCN(CCO)CC2)n1 : NO
Cc1nc(Nc2ncc(C(=O)Nc3c(C)csc3Cl)s2)cc(N2CCN(CCO)CC2)n1 : YES
Cc1nc(Nc2ncc(C(=O)Nc3ncccc3C)s2)cc(N2CCN(CCO)CC2)n1 : NO

Next, consider the following compound.
Q. Consider Cc1nc(Nc2ncc(C(=O)Nc3c(C)cncc3Cl)s2)cc(N2CCN(CCO)CC2)n1 . Does its % Remaining at 40 min (%) lie strictly below 60%?
A. YES

====

assay: in vitro; details: human, microsomes
Value Type: half-life

Cc1nc(Nc2ncc(C(=O)Nc3c(C)noc3C)s2)cc(N2CCN(CCO)CC2)n1 : > 1.67 h

Pending compound:
Q. Dear colleague, I am looking for the recorded half-life of the following compound: Cc1nc(Nc2ncc(C(=O)Nc3ncccc3C)s2)cc(N2CCN(CCO)CC2)n1
A. > 1.43 h

====

assay: in vivo; details: male, CD1, mouse, plasma, iv, 1 mg/kg
Value Type: Vd (L/kg)
Only the number, expressed in L/kg, is required.

Q. Could you tell me which Vd is on file for Cc1nc(Nc2ncc(C(=O)Nc3c(Cl)ccnc3C)s2)cc(N2CCN(CCO)CC2)n1 ?
A. 1.31

Q. Look up Vd for this compound: Cc1nc(Nc2ncc(C(=O)Nc3c(C)cccc3Cl)s2)cc(N2CCN(CCO)CC2)n1 [Compound A8, reference compound]
A. 3.1

====

assay: in vivo; details: male, CD1, mouse, plasma, iv, 1 mg/kg
Value Type: clearance (mL/min/kg)
Report the figure in mL/min/kg without appending any unit label.

Cc1nc(Nc2ncc(C(=O)Nc3c(Cl)ccnc3C)s2)cc(N2CCN(CCO)CC2)n1 : 75

Query compound follows.
Q. Can you look up the measured clearance of Cc1nc(Nc2ncc(C(=O)Nc3c(C)cccc3Cl)s2)cc(N2CCN(CCO)CC2)n1 [Compound A8, reference compound] for me?
A. 32

====

Below is a list of entries, each paired with its recorded pIC50 value.
biological target: SIK3 (Homo sapiens (Human), UniProt Q9Y2K2)
Field pIC50 (float): negative decimal logarithm of the concentration in molar.

Cc1nc(Nc2ncc(C(=O)Nc3c(Cl)ccnc3C)s2)cc(N2CCN(C)CC2)n1 [Compound C10] : 6.31

Q. Using the record for Cc1nc(Nc2ncc(C(=O)Nc3c(C)noc3C)s2)cc(N2CCN(CCO)CC2)n1 [Compound C9] , report its pIC50.
A. 6.10

====

conditions: mouse, microsomes
Value Type: Intrinsic clearance (L/min/mg) (µL/min/mg)
Answer in µL/min/mg, number only, no unit symbol.

Cc1nc(Nc2ncc(C(=O)Nc3c(C)cncc3Cl)s2)cc(N2CCN(CCO)CC2)n1 : 38

Now, please, on to the next molecule.
Q. Recorded Intrinsic clearance (L/min/mg) for Cc1nc(Nc2ncc(C(=O)Nc3ncccc3C)s2)cc(N2CCN(CCO)CC2)n1 , please?
A. 35

====

Items are presented alongside their recorded concentration at 6 h.
experiment: in vivo; conditions: CD1, mouse, plasma, oral, 30 mg/kg; read-out: Free concentration (nM) at timepoint after 30 mg/kg po
Answer in nM, number only, no unit symbol.

Cc1nc(Nc2ncc(C(=O)Nc3c(C)csc3Cl)s2)cc(N2CCN(C)CC2)n1 : 8
Cc1nc(Nc2ncc(C(=O)Nc3c(Cl)csc3Cl)s2)cc(N2CCN(CCO)CC2)n1 : 5

Q. Field request: concentration at 6 h | item: Cc1nc(Nc2ncc(C(=O)Nc3c(Cl)csc3C)s2)cc(N2CCN(CCO)CC2)n1 [Compound D1]
A. 4

====

assay: in vivo; settings: CD1, mouse, plasma, oral, 30 mg/kg; read-out: Free concentration (nM) at timepoint after 30 mg/kg po
Value Type: concentration at 12 h (nM)
Respond numerically; units are nM and should not be typed.

Consider the following illustrative entries.
Cc1nc(Nc2ncc(C(=O)Nc3c(Cl)csc3Cl)s2)cc(N2CCN(CCO)CC2)n1 : 1.1
Cc1nc(Nc2ncc(C(=O)Nc3c(Cl)csc3C)s2)cc(N2CCN(CCO)CC2)n1 [Compound D1] : 2.14

# next molecule below
Q. Fill blank: measured concentration at 12 h of the molecule Cc1nc(Nc2ncc(C(=O)Nc3c(C)csc3Cl)s2)cc(N2CCN(C)CC2)n1 is ____.
A. 2.71

====

test: in vivo; settings: male, CD1, mouse, plasma, po, 30 mg/kg
Reported Tmax values for a set of compounds
Give the value in h but do not write h after it.

Cc1nc(Nc2ncc(C(=O)Nc3c(Cl)ccnc3C)s2)cc(N2CCN(CCO)CC2)n1 : 0.5

Q. Looking for the measured Tmax of Cc1nc(Nc2ncc(C(=O)Nc3c(C)cccc3Cl)s2)cc(N2CCN(CCO)CC2)n1 [Compound A8, reference compound] , can you help?
A. 2

====

assay: in vivo; settings: male, CD1, mouse, plasma, iv, 1 mg/kg
Value Type: MRT inf (min)
The figure you give is taken to be in min; do not add the unit.

Cc1nc(Nc2ncc(C(=O)Nc3c(C)cccc3Cl)s2)cc(N2CCN(CCO)CC2)n1 [Compound A8, reference compound] : 96

Q. What value of MRT inf has been recorded for this entry: Cc1nc(Nc2ncc(C(=O)Nc3c(Cl)ccnc3C)s2)cc(N2CCN(CCO)CC2)n1 [Compound B3]
A. 17.4

====

// values below are Percentage unbound (%); system is murine plasma-proteins

Cc1nc(Nc2ncc(C(=O)Nc3ncccc3C)s2)cc(N2CCN(CCO)CC2)n1 : 30%

Q. Hello, I am looking for reported Percentage unbound (%) with murine plasma-proteins for Cc1nc(Nc2ncc(C(=O)Nc3c(Cl)ccnc3C)s2)cc(N2CCN(CCO)CC2)n1 . Could you help?
A. 11%

Q. For murine plasma-proteins, provide Percentage unbound (%) of Cc1nc(Nc2ncc(C(=O)Nc3c(C)noc3C)s2)cc(N2CCN(CCO)CC2)n1 please.
A. 44%

Q. Given the entry Cc1nc(Nc2ncc(C(=O)Nc3c(C)nn(C)c3C)s2)cc(N2CCN(CCO)CC2)n1 , what Percentage unbound (%) was observed with murine plasma-proteins?
A. 62%

Q. murine plasma-proteins / Percentage unbound (%) / Cc1nc(Nc2ncc(C(=O)Nc3c(C)cncc3Cl)s2)cc(N2CCN(CCO)CC2)n1 : value?
A. 14%

Origin of the recorded values: patent US12172993B2
